Source of measurements: ChEMBL document CHEMBL5442168

Test: Mouse liver microsomal stability of compound in microsomal protein, PBS buffer pH 7.4, NADPH, glucose-6-phosphate and glucose-6-phosphate dehydrogenase media. Aliquotes were taken at 5 time points and after stopping the reaction, supernatants were analyzed using HPLC coupled with a tandem mass spectrometer. The elimination constant, half-life, and intrinsic clearance are determined as results using linear regression analysis. The assay has been performed by Enamine biological services, Bienta Ltd.The protocol is publicly available: dx.doi.org/10.17504/protocols.io.5qpvokdb9l4o/v1
Format: ADME, microsomes, Microsome
Conditions: liver microsomes
property-label: microsomal CLint (µL/min/mg)

Look over these answered cases.
[
  {
    "structure-notation": "CC(C)[C@@H](Nc1ncnc2[nH]c(-c3cnn(C)c3C#N)cc12)c1ccc2c(c1)S(=O)(=O)CCC2",
    "endpoint-unit": "µL/min/mg",
    "microsomal CLint": 440
  },
  {
    "structure-notation": "CNC(=O)c1cccc(-c2cc3c(N[C@H](c4ccc5c(c4)S(=O)(=O)CCC5)C(C)C)ncnc3[nH]2)c1",
    "endpoint-unit": "µL/min/mg",
    "microsomal CLint": 197
  },
  {
    "structure-notation": "CC(C)[C@H](Nc1ncnc2[nH]c(-c3cnn(CC(=O)N(C)C)c3)cc12)c1ccc2c(c1)S(=O)(=O)CCC2",
    "endpoint-unit": "µL/min/mg",
    "microsomal CLint": 124
  }
]

(a) CC(C)[C@H](CO)Nc1ncnc2[nH]ccc12
(b) CNC(=O)c1c[nH]c2ncnc(N[C@H](c3ccc4c(c3)S(=O)(=O)CCC4)C(C)C)c12
**Q:** Choose between a and b : whose measured microsomal CLint value is numerically larger? Record your answer as the label of the chosen record.
**A:** b
(b: 770 µL/min/mg, a: 10 µL/min/mg)
